Every entry's value here was drawn from patent US20240116946A1.

- tgt: recombinant SARS-CoV-2 Main protease (Mpro) (Severe acute respiratory syndrome coronavirus 2 (2019-nCoV) (SARS-CoV-2))
- assay_overview: Cov Mpro Biochemical IC50 Assay
- details: recombinant SARS-CoV-2 Mpro 7.5 nM, fluorogenic peptide substrate 40 μM; read-out: MPro IC50
Note to self: IC50 under 5 nM means condition met, ties and anything higher get condition not met.

{"columns": ["molecule", "assigned_category"],
 "data": [
  ["COc1ccc(Cl)c(-c2cc3[nH]c(=O)n(-c4cncc5cnn(CC(F)(F)F)c45)c(=O)c3s2)c1 [Example 500]", "condition not met"],
  ["COc1cc(-c2cc3c(s2)c(=O)n(-c2cncc(CO)c2)c(=O)n3CCC#N)c(Cl)cc1F [Example 1100]", "condition met"],
  ["COc1cc(-c2cc3[nH]c(=O)n(-c4cncc5cc(C(C)(C)O)sc45)c(=O)c3s2)c(Cl)cc1F [Example 513]", "condition not met"],
  ["COc1cc(-c2cc3c(s2)c(=O)n(-c2cncc(C(F)(F)F)c2)c(=O)n3CCC#N)c(Cl)cc1F [Example 869]", "condition not met"],
  ["COc1cc(-c2cc3c(s2)c(=O)n(-c2cncc4cnn(C)c24)c(=O)n3C)c(Cl)cc1F [Example 898]", "condition not met"]
]}
